- Tested on: HDAC6 enzyme (Homo sapiens, UniProt Q9UBN7)
- Construct: transducing full length HDAC1 and HDAC6 genes into Sf-9 insect cells; GST; purchased SignalChem; host or cells: Sf-9 insect cells
- Sequence (Q9UBN7 whole entry): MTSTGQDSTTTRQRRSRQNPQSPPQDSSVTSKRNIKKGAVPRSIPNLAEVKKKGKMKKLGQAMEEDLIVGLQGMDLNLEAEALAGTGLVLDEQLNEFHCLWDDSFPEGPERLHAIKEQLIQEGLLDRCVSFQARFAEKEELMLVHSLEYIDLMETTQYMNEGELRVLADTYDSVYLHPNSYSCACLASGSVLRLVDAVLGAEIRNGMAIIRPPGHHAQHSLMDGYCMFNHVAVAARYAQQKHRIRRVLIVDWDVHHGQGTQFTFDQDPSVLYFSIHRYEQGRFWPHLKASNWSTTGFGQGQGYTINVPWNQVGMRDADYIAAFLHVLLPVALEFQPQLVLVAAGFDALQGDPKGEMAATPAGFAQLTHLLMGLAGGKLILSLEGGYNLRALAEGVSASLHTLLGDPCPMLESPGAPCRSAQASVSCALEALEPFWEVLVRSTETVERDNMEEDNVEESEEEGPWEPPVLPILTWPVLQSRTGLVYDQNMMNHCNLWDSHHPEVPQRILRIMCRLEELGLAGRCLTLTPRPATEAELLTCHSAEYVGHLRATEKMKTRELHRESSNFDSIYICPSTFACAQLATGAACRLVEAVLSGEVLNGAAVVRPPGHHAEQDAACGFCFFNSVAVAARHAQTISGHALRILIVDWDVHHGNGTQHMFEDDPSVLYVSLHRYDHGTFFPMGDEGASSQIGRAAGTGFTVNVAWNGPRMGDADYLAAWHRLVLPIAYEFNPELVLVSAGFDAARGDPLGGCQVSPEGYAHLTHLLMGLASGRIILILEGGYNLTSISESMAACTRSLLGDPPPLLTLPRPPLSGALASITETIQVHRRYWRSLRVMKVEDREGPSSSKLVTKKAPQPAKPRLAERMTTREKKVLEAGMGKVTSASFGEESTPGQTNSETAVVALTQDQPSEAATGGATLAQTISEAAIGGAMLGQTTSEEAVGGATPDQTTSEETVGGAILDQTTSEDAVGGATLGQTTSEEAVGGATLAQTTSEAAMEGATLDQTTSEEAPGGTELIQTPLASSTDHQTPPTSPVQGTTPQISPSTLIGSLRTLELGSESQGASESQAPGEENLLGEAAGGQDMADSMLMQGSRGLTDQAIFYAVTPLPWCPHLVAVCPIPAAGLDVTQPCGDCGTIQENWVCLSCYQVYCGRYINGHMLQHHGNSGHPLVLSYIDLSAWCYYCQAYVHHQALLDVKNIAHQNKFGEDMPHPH
- Method: HDAC1/6 Enzyme Inhibitory Assay (HDAC-Glo I/II Assay kit), HDAC6
- Format: biochemical
- Measurement setup: 1 μM test compound; wells without enzyme = 100% inhibition; read-out: HDAC6 inhibitory rate (%) (1 μM)
Readout kind: inhibition at 1 µM (%)

Known inhibition at 1 µM results, listed for orientation:
O=C1c2cc(-c3noc(C(F)(F)F)n3)ccc2CN1[C@@H]1CCc2ccccc21 [Example 25]	92
CN1CCC(C(=O)N[C@@H]2CCCC[C@H]2N2Cc3ccc(-c4noc(C(F)(F)F)n4)cc3C2=O)CC1 [Example 123]	56
CC(=O)N1CC[C@H](N2Cc3ccc(-c4noc(C(F)(F)F)n4)cc3C2=O)[C@H](c2ccccc2)C1 [Example 21]	93
O=C1CCCN1c1cccc(Cl)c1N1Cc2ccc(-c3noc(C(F)(F)F)n3)cc2C1=O [Example 185]	97
O=C(N[C@H]1CCCC[C@H]1N1Cc2ccc(-c3noc(C(F)(F)F)n3)cc2C1=O)C1CC1 [Example 86]	98

P = CC1(C(=O)N[C@@H]2CCC[C@H]2N2Cc3ccc(-c4noc(C(F)(F)F)n4)cc3C2=O)COC1 [Example 151]
Q = CN1CCC[C@@H]1C(=O)N[C@@H]1CCCC[C@H]1N1Cc2ccc(-c3noc(C(F)(F)F)n3)cc2C1=O [Example 94]
R = CC(C)(C)OC(=O)N1CC[C@H](N2Cc3ccc(-c4noc(C(F)(F)F)n4)cc3C2=O)[C@H](c2ccccc2)C1 [Example 14]
[ask] Please list these in order of increasing inhibition at 1 µM. Thank you! Quick reminder: the answer is the labels in the order asked.
[reply] P, R, Q

Source of measurements: patent US10308643B2
